# SYSTEM_UNDER_TEST: Kallikrein-7 (Homo sapiens)
# MEASUREMENT_DESCRIPTION: activation of human kallikrein-7 proenzyme – biochemical, fluorescence intensity, primary screen (AID 652039)
# CONDITION_SUMMARY: purified proKLK7, EDANS-DABCYL substrate fluorescence; at 7 µM; hits give high values; 100% is mature enzyme control, 0% vehicle
The whole screen tested about 370,000 compounds, of which about 3,300 (0.89%) were called active. This is one part of a sample in which actives are shown more often than they occur.
MEASURED_ENDPOINT: activation (%)
Numbers only here, please. The scale is %.

Field: example entries. Status: answers known.
{"columns": ["COMPOUND", "NUMBER"],
 "data": [
  ["CC(=O)Nc1ccc(OC[C@@H](O)CN2CCC(C(O)(c3ccccc3)c3ccccc3)CC2)cc1", 0.22],
  ["Cc1[nH]c(=O)c(C(=O)/C=C/c2ccccc2)c2c1CCCC2", -0.01],
  ["CCN(CC)C(=O)CC[C@@H]1CC[C@]2(CCCN(S(=O)(=O)C3CCCCC3)C2)O1", -0.08],
  ["CC1(C)CN(c2ccc(-c3ccnc4ncnn34)cc2)C1=O", 29.6],
  ["COc1cc(/C=N/N=C(\\N)c2nonc2N)cc(OC)c1OC", 0.13]
]}

Request: Give the reported activation for O=C(CSc1nnc(COc2ccccc2)n1Cc1ccco1)c1ccc2ccccc2c1 (system: Kallikrein-7 (Homo sapiens)).
Result: 0.09

Request: Param readout = activation; param system = Kallikrein-7 (Homo sapiens); param query = CCC(=O)Nc1c(S(=O)(=O)c2ccccc2)c2nc3ccccc3nc2n1Cc1ccccc1 ; response: value
Result: -55

Request: What is its activation for Kallikrein-7 (Homo sapiens)? Entry: O=C1NC(c2ccccc2)Oc2ccccc21 (configuration not stated)
Result: -2.02

Request: Field: activation (Kallikrein-7 (Homo sapiens)). Entry: O=C1NC(c2ccncc2)Nc2sc3c(c21)CCCC3 (configuration not stated)
Result: 1.14

Request: activation of COCc1cc(=O)[nH]c(-c2ccc(C(F)(F)F)cc2)n1 on Kallikrein-7 (Homo sapiens)?
Result: 0.23

Request: Give recorded activation with Kallikrein-7 (Homo sapiens) for the following compound: O=S1(=O)c2c(cccc2N2CC[C@H](O)C2)O[C@@H]2CCN1C2
Result: -0.53

Request: Notebook entry, Kallikrein-7 (Homo sapiens) assay: activation of Cc1ccc(S(=O)(=O)N2CCC(C(=O)OCC(=O)N3CC(=O)Nc4ccccc43)CC2)cc1 = ?
Result: 0.15

Request: Test system Kallikrein-7 (Homo sapiens); read-out activation; what value for CC(C)(C)c1ccc(CSc2nnc(-c3cccs3)o2)cc1 ?
Result: -0.23

Request: Checklist item: activation tested on Kallikrein-7 (Homo sapiens), entry COCc1cc(=O)[nH]c2cc(NC(=O)C(F)(F)F)c(C)cc12 , value?
Result: 466

Request: Give recorded activation with Kallikrein-7 (Homo sapiens) for the following compound: COc1cc(/C=N\NC(=O)c2nonc2N)c(OC)cc1Br
Result: 163

Request: So what activation did O=C1c2ccccc2NC(c2ccccn2)N1NS(=O)(=O)c1ccccc1 (configuration not stated) get with Kallikrein-7 (Homo sapiens)?
Result: 10.7

Request: Fill in the recorded activation for this compound, with Kallikrein-7 (Homo sapiens) as test system: O=S1(=O)c2ccc(Br)cc2OC[C@H](Cc2ccccc2)N1Cc1cn(Cc2ccccc2)nn1
Result: -0.03
